Let's look at some variants and their measured self-cleavage kobs at 40 uM GlcN6P.
B1: glmS ribozyme (parent)
chain: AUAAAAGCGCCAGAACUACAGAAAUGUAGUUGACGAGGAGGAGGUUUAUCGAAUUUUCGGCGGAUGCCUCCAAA

variants of: B1; assay: self-cleavage kobs at 40 uM GlcN6P; higher = faster cleavage; RNA array; conditions: with glucosamine-6-phosphate
Variants at the floor of the assay were thinned out.

variant.descriptor	self-cleavage kobs at 40 uM GlcN6P
A36U G44C U47G	< 1e-05 s⁻¹
A12U G62C	< 1e-05 s⁻¹
A36U C58G C70A	8.19e-05 s⁻¹
A6G G51C	< 1e-05 s⁻¹
C50U A64U	< 1e-05 s⁻¹
G9U U45G A53G G62U	< 1e-05 s⁻¹
G35A U49G C71A	< 1e-05 s⁻¹
A6G G13A	< 1e-05 s⁻¹
C8A G35C A48C G60A	< 1e-05 s⁻¹
C10A U54A	< 1e-05 s⁻¹
G9A C16G	< 1e-05 s⁻¹
A48U G62U	< 1e-05 s⁻¹
C10A A36U C68G	8.85e-05 s⁻¹
U30G G37C	< 1e-05 s⁻¹
G41C C68G	< 1e-05 s⁻¹
G51A A52C	< 1e-05 s⁻¹
U46G U54C	0.00019 s⁻¹
U47A G59A	< 1e-05 s⁻¹
G35U C68G	0.000484 s⁻¹
G13A C50G C68G	7.03e-05 s⁻¹
C8G G29C A64G	< 1e-05 s⁻¹
C16A G29A A36U U65A C71U	< 1e-05 s⁻¹
A36C A52U	< 1e-05 s⁻¹
C34G U54A	< 1e-05 s⁻¹
A39U U56C	3.9e-05 s⁻¹
C8G A12C U31C G32C	< 1e-05 s⁻¹
A39U U55G	0.000507 s⁻¹
G60C G62C	< 1e-05 s⁻¹
U30G A52C	< 1e-05 s⁻¹
G29A G43A	< 1e-05 s⁻¹
A39U G40U	9.94e-05 s⁻¹
C16G G43C	< 1e-05 s⁻¹
G62U C67G	< 1e-05 s⁻¹
U30G A42U G43U A48U G59U	< 1e-05 s⁻¹
A15C G44U C61G C67G	< 1e-05 s⁻¹
G41C G43A C50G C67A U69C	< 1e-05 s⁻¹
G7U C8U C67U	< 1e-05 s⁻¹
A6U G35U	< 1e-05 s⁻¹
G29C A39G	0.000107 s⁻¹
C10G U49A	< 1e-05 s⁻¹
G29A C67A	2.96e-05 s⁻¹
G13U A33U	< 1e-05 s⁻¹
U46A C50G	< 1e-05 s⁻¹
G51A U57G	< 1e-05 s⁻¹
U31C C34G G37A A42U U47A A52U	< 1e-05 s⁻¹
A15G U56C	5.65e-05 s⁻¹
A15C C61A	< 1e-05 s⁻¹
A12U G40A	0.000618 s⁻¹
G32C A39G G43A	< 1e-05 s⁻¹
C16A G37U G38A U45A U55G	< 1e-05 s⁻¹
A14G G35U G37U G44U C71U	< 1e-05 s⁻¹
G40C C71A	0.000225 s⁻¹
C8A C10A G44U U46A C67A	< 1e-05 s⁻¹
G13U G32U A36G G38C U54G	< 1e-05 s⁻¹
A6C A36C	< 1e-05 s⁻¹
C10A C50G G63C	0.000128 s⁻¹
G35C C71G	< 1e-05 s⁻¹
G32U A33U	< 1e-05 s⁻¹
C16G C34A	< 1e-05 s⁻¹
U30C C50A U65A U69G	4.39e-05 s⁻¹
C10G G43A A48G U54G C58A A64U	< 1e-05 s⁻¹
G29C U30G U31A C50U	< 1e-05 s⁻¹
G62U G63A	< 1e-05 s⁻¹
G37A U46A	< 1e-05 s⁻¹
C16A A64G	3.87e-05 s⁻¹
A12C G66U C70U	3.71e-05 s⁻¹
U47C C71U	0.000124 s⁻¹
C11G A14G G63U C70A	9.38e-05 s⁻¹
G41C U45G U57C G59A C61U	< 1e-05 s⁻¹
A33C C34G C71U	< 1e-05 s⁻¹
G40C A48U	< 1e-05 s⁻¹
G13U G35A U45A A64G	< 1e-05 s⁻¹
A42U A48G	< 1e-05 s⁻¹
G60C U69C	< 1e-05 s⁻¹
C8A G40A	< 1e-05 s⁻¹
C8U A52U C58U A64C C70U	< 1e-05 s⁻¹
G9A U47C	< 1e-05 s⁻¹
G32A G35C C67G	< 1e-05 s⁻¹
U47A U57G	< 1e-05 s⁻¹
G51A G60C	< 1e-05 s⁻¹
A39U A53G	0.000648 s⁻¹
U30C C50G U69A	0.000101 s⁻¹
C8A A39C	< 1e-05 s⁻¹
C8A C58G	< 1e-05 s⁻¹
